Hey, just so you know, these numbers are from ChEMBL document CHEMBL3885881.

Organism: Rattus norvegicus
Assay: DrugMatrix - Regimen: Daily Repeat
Assay type: toxicity, organism-based, Sprague-Dawley
Set-up: regimen Daily Repeat, gender Male, age 6-8 weeks
Conditions: in vivo, iv, 0 mg/kg, 72 h, tissue Plasma, dose level Control, time 3 day, vehicle 100 % SALINE
quantity-measured: ALBUMIN (G/DL)

1) CN(N=O)C(=O)N[C@@H](C=O)[C@@H](O)[C@H](O)[C@H](O)CO; 4.08
2) NCC[C@H](O)C(=O)N[C@@H]1C[C@H](N)[C@@H](O[C@H]2O[C@H](CN)[C@@H](O)[C@H](O)[C@H]2O)[C@H](O)[C@H]1O[C@H]1O[C@H](CO)[C@@H](O)[C@H](N)[C@H]1O; 3.97
3) CC1(C)S[C@@H]2[C@H](NC(=O)[C@H](NC(=O)N3CCNC3=O)c3ccccc3)C(=O)N2[C@H]1C(=O)O; 4.27
4) CC[C@@]1(O)C(=O)OCc2c1cc1n(c2=O)Cc2cc3ccccc3nc2-1; 4.22
